target: human TLR8 (Homo sapiens, UniProt Q9NR97); test: HEK293-Blue-hTLR-8 cells assay (SEAP reporter, R848 stimulation); details: HEK293-Blue-hTLR8 cells, R848, 20 hrs; read-out: HEK/hTLR8 IC50
Sequence (Q9NR97 27-1041): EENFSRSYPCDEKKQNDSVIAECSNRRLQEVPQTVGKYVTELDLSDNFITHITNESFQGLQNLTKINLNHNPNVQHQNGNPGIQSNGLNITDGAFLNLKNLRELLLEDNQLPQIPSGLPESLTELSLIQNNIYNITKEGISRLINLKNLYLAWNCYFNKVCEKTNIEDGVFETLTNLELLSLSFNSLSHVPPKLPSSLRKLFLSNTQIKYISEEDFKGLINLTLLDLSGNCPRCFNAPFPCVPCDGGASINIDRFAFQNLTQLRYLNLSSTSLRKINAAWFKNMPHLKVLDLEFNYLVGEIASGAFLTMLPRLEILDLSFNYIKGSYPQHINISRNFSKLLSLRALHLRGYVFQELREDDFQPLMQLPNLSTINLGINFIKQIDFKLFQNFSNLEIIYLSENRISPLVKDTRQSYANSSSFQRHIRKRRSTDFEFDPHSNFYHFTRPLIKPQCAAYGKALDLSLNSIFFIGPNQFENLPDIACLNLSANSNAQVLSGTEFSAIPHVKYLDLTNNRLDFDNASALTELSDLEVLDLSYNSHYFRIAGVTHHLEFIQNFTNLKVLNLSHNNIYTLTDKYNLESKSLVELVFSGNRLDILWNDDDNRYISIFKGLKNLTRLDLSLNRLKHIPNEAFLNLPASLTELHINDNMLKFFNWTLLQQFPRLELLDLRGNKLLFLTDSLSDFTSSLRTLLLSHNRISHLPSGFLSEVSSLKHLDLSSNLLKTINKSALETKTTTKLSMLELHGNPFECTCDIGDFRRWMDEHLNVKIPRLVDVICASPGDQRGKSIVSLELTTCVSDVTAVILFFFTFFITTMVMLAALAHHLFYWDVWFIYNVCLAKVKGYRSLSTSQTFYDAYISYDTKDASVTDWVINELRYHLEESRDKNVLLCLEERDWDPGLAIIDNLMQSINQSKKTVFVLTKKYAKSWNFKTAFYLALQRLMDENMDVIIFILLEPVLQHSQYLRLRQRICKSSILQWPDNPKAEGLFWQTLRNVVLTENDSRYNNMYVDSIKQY
Checkbox rule: IC50 lower than 9 nM = satisfied; IC50 not lower than 9 nM = not satisfied.

Worked cases, answers included:
{"columns": ["molecule", "category"],
 "data": [
  ["C[C@@H]1CN(c2ccc(C#N)n3nccc23)C[C@H](CN2CC(c3ccc(N4CC(C)(N)C4)nc3)C2)O1 [Example 157]", "not satisfied"],
  ["CO[C@@H]1CN(c2nccc(N3CCN(C[C@H]4CN(c5ccc(C#N)c6ncccc56)C[C@@H](C)O4)CC3)n2)C[C@@H]1N [Example 92]", "satisfied"],
  ["CO[C@H]1CN(c2nccc(N3CCN(C[C@H]4CN(c5ccc(C#N)c6ncccc56)C[C@@H](C)O4)CC3)n2)CC1N (stereo in doubt) [Example 53]", "satisfied"]
]}

Q. Please determine if Cc1cc(N2CCN(C[C@H]3CN(c4ccc(C#N)n5ncc(F)c45)C[C@@H](C)O3)CC2)nc(N2CCNCC2)n1 [Example 67] is below 9 nM in terms of IC50.
A. not satisfied

Q. Please determine if CO[C@@H]1CN(c2cc(C)nc(N3CCN(C[C@H]4CN(c5ccc(C#N)c6nccnc56)C[C@@H](C)O4)CC3)n2)C[C@H]1N [Example 121] is below 9 nM in terms of IC50.
A. satisfied

---

molecular target: hTLR9 (Homo sapiens); test: HEK293-Blue-hTLR-9 cells assay (SEAP reporter, ODN2006 stimulation); assay type: cell-based; design: host or cells: HEK293 (HEK-Blue hTLR9); conditions: HEK293-Blue-hTLR9 cells, ODN2006, 20 hrs; read-out: HEK/hTLR9 IC50
Sequence (Q9NR96 26-1032): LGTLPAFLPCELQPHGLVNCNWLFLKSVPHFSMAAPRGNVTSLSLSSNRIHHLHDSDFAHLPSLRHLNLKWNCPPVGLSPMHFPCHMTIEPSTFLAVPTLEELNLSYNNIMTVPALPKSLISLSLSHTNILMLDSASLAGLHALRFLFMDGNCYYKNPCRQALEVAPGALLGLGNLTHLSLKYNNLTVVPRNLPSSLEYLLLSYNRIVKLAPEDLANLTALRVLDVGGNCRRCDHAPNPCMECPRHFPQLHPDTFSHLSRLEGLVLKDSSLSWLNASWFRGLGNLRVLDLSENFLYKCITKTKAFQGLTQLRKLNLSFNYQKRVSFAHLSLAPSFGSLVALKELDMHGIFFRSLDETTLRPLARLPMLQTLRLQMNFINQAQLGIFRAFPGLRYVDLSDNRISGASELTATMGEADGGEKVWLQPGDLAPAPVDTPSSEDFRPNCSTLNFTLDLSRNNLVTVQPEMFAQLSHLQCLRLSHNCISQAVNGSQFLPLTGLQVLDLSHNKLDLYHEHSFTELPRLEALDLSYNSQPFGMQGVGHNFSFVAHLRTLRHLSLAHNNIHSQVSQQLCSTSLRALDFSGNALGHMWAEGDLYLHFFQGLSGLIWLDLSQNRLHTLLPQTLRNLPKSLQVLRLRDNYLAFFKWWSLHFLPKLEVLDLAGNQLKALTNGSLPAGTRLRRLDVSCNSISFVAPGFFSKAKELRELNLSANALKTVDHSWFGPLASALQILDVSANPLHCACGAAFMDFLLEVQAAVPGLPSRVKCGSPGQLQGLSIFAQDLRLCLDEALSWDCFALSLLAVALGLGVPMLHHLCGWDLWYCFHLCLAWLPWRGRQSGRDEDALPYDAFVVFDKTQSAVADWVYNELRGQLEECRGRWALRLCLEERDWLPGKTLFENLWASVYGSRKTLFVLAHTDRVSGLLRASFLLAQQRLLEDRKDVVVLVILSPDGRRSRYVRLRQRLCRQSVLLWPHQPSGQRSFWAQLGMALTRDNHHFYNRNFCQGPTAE
Checkbox rule: IC50 lower than 100 nM = True; IC50 not lower than 100 nM = False.

Worked cases, answers included:
{"columns": ["compound", "category"],
 "data": [
  ["C[C@@H]1CN(c2ccc(C#N)c3ncccc23)C[C@H](CN2CCN(c3cc(N4CCNCC4)ccn3)CC2)O1", "True"],
  ["[2H]c1ccc2c(N3C[C@H](CN4CCN(c5ccc(N6C[C@H](N)[C@@H](F)C6)nc5)CC4)O[C@H](C)C3)ccc(C#N)c2n1", "False"],
  ["Cc1cc(N2CCN(C[C@H]3CN(c4ccc(C#N)c5ncccc45)C[C@@H](C)O3)CC2)nc(NC2CNCC2F)n1 (stereo in doubt)", "True"],
  ["Cc1nc(N2CCNCC2)nc(N2CCN(C[C@H]3CN(c4ccc(C#N)c5ncccc45)C[C@@H](C)O3)CC2)c1C", "False"],
  ["C[C@@H]1CN(c2ccc(C#N)c3ncccc23)C[C@H](CN2CCN(c3cccc(N4CC(N)C(F)C4)n3)CC2)O1 (some centres unmarked)", "False"]
]}

Here is another compound to look at.
Q. Please determine if `[2H]c1ccc2c(N3C[C@H](CN4CC(c5ccc(N6C[C@@H](N)[C@H](OC)C6)nc5)C4)O[C@H](C)C3)ccc(C#N)c2n1` is below 100 nM in terms of IC50.
A. True

---

target: human TLR7 (Homo sapiens); test: HEK293-Blue-hTLR-7 cells assay (SEAP reporter, R848 stimulation); conditions: HEK293-Blue-hTLR7 cells, R848, 20 hrs; read-out: HEK/hTLR7 IC50
Sequence (Q9NYK1 27-1049): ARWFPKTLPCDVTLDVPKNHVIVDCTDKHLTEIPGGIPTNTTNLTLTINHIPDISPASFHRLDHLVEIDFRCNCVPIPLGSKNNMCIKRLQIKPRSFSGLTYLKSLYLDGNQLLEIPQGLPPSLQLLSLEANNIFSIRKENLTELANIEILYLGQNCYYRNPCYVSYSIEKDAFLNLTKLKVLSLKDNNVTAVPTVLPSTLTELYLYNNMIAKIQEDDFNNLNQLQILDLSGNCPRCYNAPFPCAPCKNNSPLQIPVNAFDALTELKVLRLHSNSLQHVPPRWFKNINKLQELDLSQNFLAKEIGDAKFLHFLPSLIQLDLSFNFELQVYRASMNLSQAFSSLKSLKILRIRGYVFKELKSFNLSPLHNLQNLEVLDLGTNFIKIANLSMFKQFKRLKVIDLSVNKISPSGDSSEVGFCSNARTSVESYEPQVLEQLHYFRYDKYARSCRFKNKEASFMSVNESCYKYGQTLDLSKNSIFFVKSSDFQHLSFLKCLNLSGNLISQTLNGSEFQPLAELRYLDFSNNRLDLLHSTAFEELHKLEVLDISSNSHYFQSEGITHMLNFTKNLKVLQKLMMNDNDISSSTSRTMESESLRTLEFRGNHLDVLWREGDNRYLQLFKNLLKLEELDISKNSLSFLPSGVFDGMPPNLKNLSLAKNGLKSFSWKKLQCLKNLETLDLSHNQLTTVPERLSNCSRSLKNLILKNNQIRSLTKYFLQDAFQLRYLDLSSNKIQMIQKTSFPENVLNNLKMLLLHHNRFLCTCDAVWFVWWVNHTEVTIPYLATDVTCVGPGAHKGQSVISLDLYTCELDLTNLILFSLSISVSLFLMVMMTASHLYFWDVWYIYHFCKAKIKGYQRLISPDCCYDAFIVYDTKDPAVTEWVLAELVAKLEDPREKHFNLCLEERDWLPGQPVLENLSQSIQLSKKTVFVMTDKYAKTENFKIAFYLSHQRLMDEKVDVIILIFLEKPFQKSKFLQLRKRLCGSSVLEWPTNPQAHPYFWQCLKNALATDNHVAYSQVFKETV
assay-metric: IC50 (nM)
All answers are understood in nM, so give the number only.

In the examples that follow, each entry is paired with its recorded IC50.
{"columns": ["chemical-smiles", "target-desc", "unit-string", "IC50"],
 "data": [
  ["[2H]c1ccc2c(N3C[C@H](CN4CCN(c5cccc(N6CC(C)(N)C6)n5)CC4)O[C@H](C)C3)ccc(C#N)c2n1", "human TLR7 (Homo sapiens)", "nM", 18],
  ["Cc1ccc(N2C[C@H](CN3CCN(c4ccnc(N5CCN[C@@H](C)C5)n4)CC3)O[C@H](C)C2)c2nccnc12", "human TLR7 (Homo sapiens)", "nM", 29]
]}

Now, please, on to the next compound.
Tested on human TLR7 (Homo sapiens), the item `Cc1cc(N2C[C@@H](N)[C@](C)(O)C2)nc(N2CCN(C[C@H]3CN(c4ccc(C#N)c5nccnc45)C[C@@H](C)O3)CC2)n1` showed IC50 equal to 47

Provenance of the data: patent US20210395239A1
